target: nNOS-II (Rattus norvegicus, UniProt P29476); experiment: Standard NOS enzyme assay (oxyhemoglobin to methemoglobin), peptides as substrates, initial velocity; format: biochemical; details: Table 3; substrate 100 μM (poly-arginine 5 μg/ml); purified nNOS-II 0.2 μg; activity for arginine = 100%; means of three measurements
Sequence (P29476 whole entry, the tested form may be a part): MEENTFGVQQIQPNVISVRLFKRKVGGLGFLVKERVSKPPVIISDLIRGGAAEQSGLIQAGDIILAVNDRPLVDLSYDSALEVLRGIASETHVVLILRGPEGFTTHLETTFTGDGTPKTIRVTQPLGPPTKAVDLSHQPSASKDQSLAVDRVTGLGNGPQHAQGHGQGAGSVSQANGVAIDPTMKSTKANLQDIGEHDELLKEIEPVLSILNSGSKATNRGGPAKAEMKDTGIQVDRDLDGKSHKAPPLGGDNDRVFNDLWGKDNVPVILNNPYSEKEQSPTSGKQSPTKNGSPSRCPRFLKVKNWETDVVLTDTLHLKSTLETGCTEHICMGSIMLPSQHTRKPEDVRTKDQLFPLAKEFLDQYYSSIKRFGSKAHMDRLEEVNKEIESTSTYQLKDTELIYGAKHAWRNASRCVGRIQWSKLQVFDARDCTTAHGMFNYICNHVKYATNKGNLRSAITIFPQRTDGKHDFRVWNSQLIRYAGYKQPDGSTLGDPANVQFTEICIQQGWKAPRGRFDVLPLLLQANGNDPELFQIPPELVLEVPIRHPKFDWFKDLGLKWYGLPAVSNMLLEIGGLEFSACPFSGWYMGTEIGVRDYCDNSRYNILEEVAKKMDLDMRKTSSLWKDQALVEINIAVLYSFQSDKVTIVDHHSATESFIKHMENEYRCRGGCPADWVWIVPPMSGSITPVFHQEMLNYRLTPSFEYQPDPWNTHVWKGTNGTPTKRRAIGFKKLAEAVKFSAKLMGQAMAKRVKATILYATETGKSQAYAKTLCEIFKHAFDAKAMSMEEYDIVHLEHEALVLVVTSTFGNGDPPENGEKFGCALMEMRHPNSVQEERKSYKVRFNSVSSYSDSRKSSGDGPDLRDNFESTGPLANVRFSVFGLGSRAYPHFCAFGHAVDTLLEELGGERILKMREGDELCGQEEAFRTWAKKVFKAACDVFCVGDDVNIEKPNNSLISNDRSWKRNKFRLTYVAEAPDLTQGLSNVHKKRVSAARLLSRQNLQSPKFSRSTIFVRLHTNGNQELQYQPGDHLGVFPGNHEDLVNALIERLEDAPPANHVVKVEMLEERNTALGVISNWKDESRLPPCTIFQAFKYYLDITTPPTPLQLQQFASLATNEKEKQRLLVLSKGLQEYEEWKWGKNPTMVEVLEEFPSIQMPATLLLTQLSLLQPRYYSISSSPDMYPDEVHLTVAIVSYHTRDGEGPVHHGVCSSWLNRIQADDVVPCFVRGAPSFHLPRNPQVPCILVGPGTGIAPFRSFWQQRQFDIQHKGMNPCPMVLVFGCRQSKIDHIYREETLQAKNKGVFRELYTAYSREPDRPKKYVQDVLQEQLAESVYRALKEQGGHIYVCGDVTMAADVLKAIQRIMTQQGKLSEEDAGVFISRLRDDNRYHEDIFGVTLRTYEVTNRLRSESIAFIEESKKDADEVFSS
No end group written: not given here.
Readings of Relative activity (%) for the listed substances
I only need the number, in %, no unit after it.

{"columns": ["SUBSTANCE", "Relative activity (%)"],
 "data": [
  ["Arg-Pro-Pro-Gly-Phe-Ser-Pro-Phe (APPGFSPF; rat) [Des-Arg^9-BK]", 180],
  ["RPPGFSPFR [BK]", 125],
  ["PPGFSPFR [Des-Arg^1-BK]", 94],
  ["PPGFSP [BK fragment 2-7]", 0],
  ["ISRPPGFSPFR [Ile-Ser-BK]", 110],
  ["RPPGFSP [BK fragment 1-7]", 80]
]}

Inquiry: Param readout= Relative activity (%); system= nNOS-II (Rattus norvegicus, UniProt P29476); entry= Arg-Pro-Pro-Gly-Phe (RPPGF; rat) [BK fragment 1-5] ; returns value.
Reply text: 61

Inquiry: Try the substance KPPGFSPFR [[Lys^1]-BK]
Reply text: 113
